assay: qHTS assay to identify small molecule antagonists of the retinoid-related orphan receptor gamma (ROR-gamma) signaling pathway - cell viability counter screen (AID 1159520); conditions: Tet-on RORgamma CHO cells viability, ATP luminescence, 16 h; series mostly up to 92.4 µM; also: nearly all actives have a fitted effect of over 50% in size
Records with an inconclusive call do not appear. Calls of active or inactive are those of the source. Calls follow the shape of the dose curve; as a rule, active = well fitted cell-killing curve with a large enough effect in the repeat runs; inconclusive = weak or mixed curves, or effect the other way; inactive = no such curve, though single readings can be large or run the other way.
MEASUREMENT TYPE: outcome

Q: Entry `C=CCOC(=O)CCC1CCCCC1` : reported outcome = ?
Result: inactive

Q: Can you look up the measured outcome of `Nc1ncn([C@H]2C[C@H](O)[C@@H](CO)O2)c(=O)n1` for me?
Result: inactive

Q: Returns the measured outcome for the input molecule. Input: `O=C(NCCO[N+](=O)[O-])c1cccnc1`
Result: inactive

Q: Bench note: what outcome did `CN(C)CCCN1c2ccccc2Sc2ccccc21` show?
Result: inactive

Q: For the molecule shown here, `CN1C[C@H]2c3ccccc3Oc3ccc(Cl)cc3[C@@H]2C1` , give the reported outcome.
Result: inactive

Q: # query: outcome of entry `CNC(=O)CN(CCN(CCN(CC(=O)[O-])CC(=O)NC)CC(=O)[O-])CC(=O)[O-].O.[Gd+3]`
Result: inactive

Q: Fill blank: measured outcome of the molecule CC1OC(=O)C(C)OC1=O (stereo not drawn) is ____.
Result: inactive

Q: Look up outcome: COc1cc2nc(N(C)CCCNC(=O)C3CCCO3)nc(N)c2cc1OC (stereo not drawn)
Result: inactive

New cases:
Q: Query (molecule): `COC(C)OC` ; field requested: outcome
Result: inactive

Q: Can you share its outcome? I mean this molecule: CC(CC=O)c1ccccc1 (stereo not drawn)
Result: inactive
